Tested on: Acinetobacter baumannii ATCC17961
Protocol Details: Antimicrobial susceptibility testing: 90% growth inhibitory concentration (IC90) determination, Iso-Sensitest broth
Format: cell-based
Condition Label: Acinetobacter baumannii, ATCC17961, 90% growth inhibitory concentration, Acinetobacter baumannii ATCC17961, Iso-Sensitest broth; read-out: ATCC 17961 IC90
Structures can show the parent of a compound that is named as a salt.
Property: IC90 (nM)

molecule="CN(C)CC(=O)N1CCN(C(=O)c2ccc(NC(=O)c3ncc(-c4ccc(OC(F)F)c(F)c4F)n3C)cc2Cl)CC1 [Example 156, formate]" target_entity="Acinetobacter baumannii ATCC17961" property=IC90 units_label=nM test_result=30
molecule="Cn1c(-c2ccc(OC(F)F)c(F)c2F)cnc1C(=O)Nc1ccc(C(=O)N2CCC(C(=O)N[C@H]3CCNC3)CC2)c(Cl)c1 [Example 95, formate]" target_entity="Acinetobacter baumannii ATCC17961" property=IC90 units_label=nM test_result=50
molecule="Cn1c(-c2ccc(OC(F)F)c(F)c2F)cnc1C(=O)Nc1ccc(C(=O)N2CCN(C(=O)C3CCN(CCN)CC3)CC2)c(Cl)c1 [Example 292, trifluoroacetate]" target_entity="Acinetobacter baumannii ATCC17961" property=IC90 units_label=nM test_result=40

Source: patent US20220396565A1
